# System: MDA-MB-231
# assayRemarks: Antiproliferative activity against human MDA-MB-231 cells after 48 hrs by SRB assay
# Format: functional, cell-based
# details: MDA-MB-231, 48 h
pIC50: −log10 of the molar value.
The molecules listed here are annotated with their pIC50.

molecule: CC1(C)C(=O)C=C[C@]2(C)[C@H]3CC[C@@]4(C)[C@H](c5ccoc5)C(=O)[C@H]5O[C@]54[C@]3(C)C(=O)C[C@@H]12
result: 4.74
//
molecule: C=CCCC(=O)O/N=C1/[C@H]2O[C@]23[C@@]2(C)[C@H](CC[C@@]3(C)[C@@H]1c1ccoc1)[C@@]1(C)C=CC(=O)C(C)(C)[C@@H]1C[C@H]2OC(C)=O
result: 4.25
//
molecule: CC(=O)O[C@@H]1C[C@H]2C(C)(C)C(=O)C=C[C@]2(C)[C@H]2CC[C@@]3(C)[C@H](c4ccoc4)/C(=N\OC(=O)c4cccc([N+](=O)[O-])c4)[C@H]4O[C@]43[C@@]21C
result: < 4.00
//
molecule: CC(=O)O[C@@H]1C[C@H]2C(C)(C)/C(=N/O)C=C[C@]2(C)[C@H]2CC[C@@]3(C)[C@H](c4ccoc4)/C(=N\O)[C@H]4O[C@]43[C@@]21C
result: 4.54
//
molecule: CC(=O)O[C@@H]1C[C@H]2C(C)(C)C(O)C=C[C@]2(C)[C@H]2CC[C@@]3(C)[C@H](c4ccoc4)C(O)[C@H]4O[C@]43[C@@]21C (stereo not given in full)
result: < 4.00
//
molecule: CC(=O)O[C@@H]1C[C@H]2C(C)(C)C(O)CC[C@]2(C)[C@H]2CC[C@@]3(C)[C@H](c4ccoc4)C(O)[C@H]4O[C@]43[C@@]21C (stereo not given in full)
result: 4.80

Query: Query for MDA-MB-231: what pIC50 does the record show for CC(=O)O[C@@H]1C[C@H]2C(C)(C)C(=O)C=C[C@]2(C)[C@H]2CC[C@@]3(C)[C@H](c4ccoc4)/C(=N\OCc4cn(-c5ccc(C)cc5)nn4)[C@H]4O[C@]43[C@@]21C ?
Response: < 4.00

Query: Query for MDA-MB-231: what pIC50 does the record show for CC(=O)O[C@@H]1C[C@H]2C(C)(C)C(=O)CC[C@]2(C)[C@H]2CC[C@@]3(C)[C@H](c4ccoc4)C(=O)[C@H]4O[C@]43[C@@]21C ?
Response: 4.69

Query: Query for MDA-MB-231: what pIC50 does the record show for CC(=O)O[C@@H]1C[C@H]2C(C)(C)C(=O)C=C[C@]2(C)[C@H]2CC[C@@]3(C)[C@H](c4ccoc4)/C(=N\OCc4cn(-c5cc(Cl)c(Cl)cc5Cl)nn4)[C@H]4O[C@]43[C@@]21C ?
Response: < 4.00

Query: Query for MDA-MB-231: what pIC50 does the record show for CC(=O)O[C@@H]1C[C@H]2C(C)(C)C(=O)C=C[C@]2(C)[C@H]2CC[C@@]3(C)[C@H](c4ccoc4)/C(=N\OCc4cn(-c5ccc(Cl)cc5)nn4)[C@H]4O[C@]43[C@@]21C ?
Response: 4.67

Query: Query for MDA-MB-231: what pIC50 does the record show for CCCC(=O)O/N=C1/[C@H]2O[C@]23[C@@]2(C)[C@H](CC[C@@]3(C)[C@@H]1c1ccoc1)[C@@]1(C)C=CC(=O)C(C)(C)[C@@H]1C[C@H]2OC(C)=O ?
Response: < 4.00

Query: Query for MDA-MB-231: what pIC50 does the record show for CC1(C)C(=O)C=C[C@]2(C)[C@H]3CC[C@@]4(C)[C@H](c5ccoc5)C(=O)[C@H]5O[C@]54[C@]3(C)[C@H](OC(=O)c3ccc(F)c(Br)c3)C[C@@H]12 ?
Response: < 4.00

Query: Query for MDA-MB-231: what pIC50 does the record show for CC(=O)O[C@@H]1C[C@H]2C(C)(C)C(=O)C=C[C@]2(C)[C@H]2CC[C@@]3(C)[C@H](c4ccoc4)/C(=N\OCc4cn(CC(=O)Nc5ccccc5)nn4)[C@H]4O[C@]43[C@@]21C ?
Response: < 4.00

Query: Query for MDA-MB-231: what pIC50 does the record show for CC(=O)O[C@@H]1C[C@H]2C(C)(C)C(=O)C=C[C@]2(C)[C@H]2CC[C@@]3(C)[C@H](c4ccoc4)/C(=N\OCc4cn(CC(=O)Nc5ccc(I)c(Cl)c5)nn4)[C@H]4O[C@]43[C@@]21C ?
Response: < 4.00

Query: Query for MDA-MB-231: what pIC50 does the record show for CC(=O)O[C@@H]1C[C@H]2C(C)(C)C(=O)C=C[C@]2(C)[C@H]2CC[C@@]3(C)[C@H](c4ccoc4)/C(=N\O)[C@H]4O[C@]43[C@@]21C ?
Response: < 4.00

Query: Query for MDA-MB-231: what pIC50 does the record show for CC(=O)O[C@@H]1C[C@H]2C(C)(C)C(=O)C=C[C@]2(C)[C@H]2CC[C@@]3(C)[C@H](c4ccoc4)/C(=N\OCc4cn(CC(=O)Nc5ccc(C)cc5)nn4)[C@H]4O[C@]43[C@@]21C ?
Response: < 4.00

Query: Query for MDA-MB-231: what pIC50 does the record show for CC(=O)O/N=C1/[C@H]2O[C@]23[C@@]2(C)[C@H](CC[C@@]3(C)[C@@H]1c1ccoc1)[C@@]1(C)C=CC(=O)C(C)(C)[C@@H]1C[C@H]2OC(C)=O ?
Response: < 4.00

Source of measurements: ChEMBL document CHEMBL4020729
